System: KM12 colon
Test summary: NCI-60 one-dose screen, 48 h
Run parameters: 10 µM unless noted
Compounds without any hit were thinned out: in the full panel of roughly 83,000, 20% have a hit. Active and inactive are the calls of the source. Rule for the calls: active = growth percent below 10; inactive = the rest.
Response enum: YES (active), NO (inactive)

Worked examples, 8 compounds total:
Exercise: Hey, what did the test say about `O=C(Nc1cc(Cl)cc(Cl)c1)Nc1ccc2oc(=O)ccc2c1` ?
Solution: NO

Exercise: Write down the call the test reported for this compound. Item: `CCn1c2ccc(/C=N/NS(=O)(=O)CCN(C)C)cc2c2cc(/C=N/NS(=O)(=O)CCN(C)C)ccc21`
Solution: NO

Exercise: GET /call?item= `CCCCCCCCNC(=O)c1ccc(Cn2c(CCCC)nc3c(N)nc4ccccc4c32)cc1` returns the recorded outcome of this test.
Solution: NO

Exercise: What call does the record list for `NC(=S)N/N=C(/C=C/c1cn(-c2ccccc2)nc1-c1ccc(Cl)cc1)c1cc2ccccc2oc1=O` ?
Solution: NO

Exercise: # lookup: test call for `NC(=O)c1c(NC(=O)c2cccc(OC(F)(F)F)c2)sc2c1CCC(=O)C2`
Solution: NO

Exercise: Please state the recorded outcome for this compound: `N#Cc1ccc(S(=O)(=O)Nc2ccc(-c3cnc(N)[nH]3)cc2)cc1`
Solution: NO

Exercise: Per the records of this test, what outcome belongs to CCN1C(=O)N(CC)C2SC(N/N=C/c3cccs3)=NC21 (centres undefined) ?
Solution: YES

Exercise: Write down the call the test reported for this compound. Item: `Oc1ccc(-c2nnc(SCc3ccc(O)c4ncccc34)n2-c2ccccc2)cc1`
Solution: NO

We next turn to a different compound, shown below.
Exercise: For `CCNCCCn1c2c(c3cc(OC)c(OC)cc3c1=O)C(=O)c1cc(OC)cnc1-2` , what call appears in the results of this test?
Solution: NO
